Recorded values, source patent US12428394B2.

- systemTested: JAK2 (Homo sapiens, UniProt O60674)
- Construct: purchased Eurofins
- Sequence (O60674 whole entry): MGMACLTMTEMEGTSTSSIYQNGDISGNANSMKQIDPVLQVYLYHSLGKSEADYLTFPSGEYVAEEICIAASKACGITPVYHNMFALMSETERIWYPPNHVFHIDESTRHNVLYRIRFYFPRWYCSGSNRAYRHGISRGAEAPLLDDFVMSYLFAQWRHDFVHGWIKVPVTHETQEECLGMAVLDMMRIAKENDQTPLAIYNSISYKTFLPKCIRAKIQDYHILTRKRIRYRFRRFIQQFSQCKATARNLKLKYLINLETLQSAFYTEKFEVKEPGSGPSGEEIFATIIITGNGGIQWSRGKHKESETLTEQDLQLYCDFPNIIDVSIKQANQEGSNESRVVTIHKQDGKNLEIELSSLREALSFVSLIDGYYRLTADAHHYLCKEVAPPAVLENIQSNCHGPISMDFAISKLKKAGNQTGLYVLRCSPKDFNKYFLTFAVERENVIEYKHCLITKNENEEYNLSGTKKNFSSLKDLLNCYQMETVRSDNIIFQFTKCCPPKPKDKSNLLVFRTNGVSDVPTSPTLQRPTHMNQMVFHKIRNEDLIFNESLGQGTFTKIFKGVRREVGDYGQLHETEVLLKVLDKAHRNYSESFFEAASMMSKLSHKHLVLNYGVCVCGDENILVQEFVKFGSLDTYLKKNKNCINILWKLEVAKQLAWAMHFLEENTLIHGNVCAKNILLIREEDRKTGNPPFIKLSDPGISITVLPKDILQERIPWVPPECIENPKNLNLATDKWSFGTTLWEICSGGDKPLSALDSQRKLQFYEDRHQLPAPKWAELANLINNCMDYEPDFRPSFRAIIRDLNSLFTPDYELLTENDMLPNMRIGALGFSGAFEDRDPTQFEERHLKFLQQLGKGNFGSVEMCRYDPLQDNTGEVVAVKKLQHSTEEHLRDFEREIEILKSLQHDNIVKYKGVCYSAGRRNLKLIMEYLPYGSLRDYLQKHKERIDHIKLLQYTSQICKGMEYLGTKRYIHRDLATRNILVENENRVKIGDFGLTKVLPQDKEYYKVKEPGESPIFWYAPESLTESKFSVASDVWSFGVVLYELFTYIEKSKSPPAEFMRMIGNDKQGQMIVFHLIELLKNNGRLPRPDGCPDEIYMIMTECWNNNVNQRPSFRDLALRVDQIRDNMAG
- experiment: In vitro kinase activity experiment, JAK2
- Format: biochemical
- experimentalConditions: inhibition rate of enzyme at 500 nM; measured by Eurofins
reportedProperty: Kinase activity @ 500 nM (%) JAK2

entrysmiles=Cc1cnc(Nc2ccc(CCNC(=O)CCCN(C)C)cc2)nc1-c1cnn(C(C)C)c1 systemtested="JAK2 (Homo sapiens, UniProt O60674)" reportedproperty="Kinase activity @ 500 nM (%) JAK2" unitname=% observedresult=79
entrysmiles=Cc1cnc(Nc2ccc(N3CCN(C(=O)CO)CC3)c(F)c2)nc1-c1cnn(C(C)C)c1 systemtested="JAK2 (Homo sapiens, UniProt O60674)" reportedproperty="Kinase activity @ 500 nM (%) JAK2" unitname=% observedresult=96
entrysmiles=Cc1cnc(Nc2ccc(N3CCC(N(C)CCCCO)CC3)c(F)c2)nc1-c1cnn(C(C)C)c1 systemtested="JAK2 (Homo sapiens, UniProt O60674)" reportedproperty="Kinase activity @ 500 nM (%) JAK2" unitname=% observedresult=102
entrysmiles=Cc1cnc(Nc2ccc(N3CCC(CO)CC3)c(F)c2)nc1-c1cnn(C(C)C)c1 systemtested="JAK2 (Homo sapiens, UniProt O60674)" reportedproperty="Kinase activity @ 500 nM (%) JAK2" unitname=% observedresult=100
entrysmiles=C=CC(=O)CCN1CC2(CCN(c3ccc(Nc4ncc(C)c(-c5cnn(C(C)C)c5)n4)cc3F)CC2)C1 systemtested="JAK2 (Homo sapiens, UniProt O60674)" reportedproperty="Kinase activity @ 500 nM (%) JAK2" unitname=% observedresult=54
entrysmiles=Cc1cnc(Nc2ccc(N3CCC(N(C)C(=O)CO)CC3)c(F)c2)nc1-c1cnn(C(C)C)c1 systemtested="JAK2 (Homo sapiens, UniProt O60674)" reportedproperty="Kinase activity @ 500 nM (%) JAK2" unitname=% observedresult=102

====

- systemTested: JAK2 (Homo sapiens)
- Construct: purchased Eurofins
- experiment: In vitro kinase activity experiment, JAK2
- Type: biochemical
- experimentalConditions: inhibition rate of enzyme at 500 nM; measured by Eurofins
reportedProperty: Kinase activity @ 500 nM (%) JAK2

entrysmiles=CCN1CCN(c2ccc(Nc3ncc(C)c(-c4cnn(C(C)C)c4)n3)cc2F)CC1 systemtested="JAK2 (Homo sapiens)" reportedproperty="Kinase activity @ 500 nM (%) JAK2" observedresult=89
entrysmiles=CCN1CCN(c2ccc(Nc3ncc(F)c(-c4cnn(C5CCCC5)c4)n3)cc2F)CC1 systemtested="JAK2 (Homo sapiens)" reportedproperty="Kinase activity @ 500 nM (%) JAK2" observedresult=90
entrysmiles=Cc1cnc(Nc2ccc(CNC(=O)CCCN(C)C)cc2)nc1-c1cnn(C(C)C)c1 systemtested="JAK2 (Homo sapiens)" reportedproperty="Kinase activity @ 500 nM (%) JAK2" observedresult=88
entrysmiles=Cc1cnc(Nc2ccc(N3CCC(N(C)CCCO)CC3)c(F)c2)nc1-c1cnn(C(C)C)c1 systemtested="JAK2 (Homo sapiens)" reportedproperty="Kinase activity @ 500 nM (%) JAK2" observedresult=91
entrysmiles=Cc1cnc(Nc2ccc(N3CCC[C@@H](N(C)C(=O)CCC#N)C3)c(F)c2)nc1-c1cnn(C(C)C)c1 systemtested="JAK2 (Homo sapiens)" reportedproperty="Kinase activity @ 500 nM (%) JAK2" observedresult=90
entrysmiles=CC(C)n1cc(-c2nc(Nc3cccc(N4CCN(C)CC4)c3)ncc2F)cn1 systemtested="JAK2 (Homo sapiens)" reportedproperty="Kinase activity @ 500 nM (%) JAK2" observedresult=92
entrysmiles=CCN1CCN(Cc2ccc(Nc3ncc(F)c(-c4cnn(C(C)C)c4)n3)nc2)CC1 systemtested="JAK2 (Homo sapiens)" reportedproperty="Kinase activity @ 500 nM (%) JAK2" observedresult=89
entrysmiles=CCCCN1CC2(CCN(c3ccc(Nc4ncc(C)c(-c5cnn(C(C)C)c5)n4)cc3F)CC2)C1 systemtested="JAK2 (Homo sapiens)" reportedproperty="Kinase activity @ 500 nM (%) JAK2" observedresult=91
entrysmiles=CCCN1CC2(CCN(c3ccc(Nc4ncc(C)c(-c5cnn(C(C)C)c5)n4)cc3F)CC2)C1 systemtested="JAK2 (Homo sapiens)" reportedproperty="Kinase activity @ 500 nM (%) JAK2" observedresult=92
